measurement.notes: Tanguay_ZF_120hpf_CFIN_legacy: (Legacy) Oregon State University Tanguay Lab 120 Hour Post-fertilization zebrafish Assay for Caudal Fin Malformation (AID 2283649)
Inconclusive results are not listed. Activity calls are given as the source filed them. The calls were made as follows: active = hit-call score of the fitted dose curve at least 0.9, where 1 is the maximum; inconclusive = response in the unintended direction; inactive = score below 0.9.
Possible outcomes: active, inactive

# chemical.structure, class
measured = [
    ("CSc1ccc(Oc2ccc(S(N)(=O)=O)cc2CN(C)C)cc1C", "inactive"),
    ("O=C1CCCCC1", "inactive"),
    ("CCCCCCCCCCCCCCOS(=O)(=O)O", "active"),
    ("O=C(NS(=O)(=O)/C=C/c1cccs1)c1ccc(F)cc1Br", "inactive"),
    ("CCCCc1nc2cccnc2n1Cc1ccc(-c2ccccc2-c2nnn[nH]2)cc1", "inactive"),
    ("Cc1cc(SC2=C(O)C[C@@](CCc3ccc(N)cc3)(C(C)C)OC2=O)c(C(C)(C)C)cc1CO", "inactive"),
    ("NCCOCCOCCN", "inactive"),
    ("O=C1O[C@H]([C@H](O)CO)C(O)=C1O", "inactive"),
    ("CC(=O)[C@@]1(O)CC[C@H]2[C@@H]3CCC4=CC(=O)CC[C@]4(C)[C@H]3CC[C@@]21C", "inactive"),
    ("O=C(O)c1[nH]n(-c2ccc(S(=O)(=O)O)cc2)c(=O)c1N=Nc1ccc(S(=O)(=O)O)cc1", "inactive"),
    ("O=C1c2c(O)cccc2Cc2cccc(O)c21", "inactive"),
]

----------
measurement.notes: ATG_Sox_CIS: Attagene CIS-FACTORIAL HepG2 Assay for human SRY-box transcription factor (SOX) (AID 2282960)
cond: HepG2 Attagene cis-factorial SOX reporter, mRNA; actives raise or lower the signal
The source made the active and inactive calls. How the source made its calls: active means hit-call score of the fitted dose curve at least 0.9, where 1 is the maximum; inactive means score below 0.9.
Possible outcomes: active, inactive

# chemical.structure, class
rows = [
    ("NC1CCCCC1", "inactive"),
    ("CC(C)(C)c1ccccc1", "inactive"),
    ("S=c1[nH]c2ccccc2s1", "inactive"),
    ("COc1ccc(OC(F)(F)F)cc1CN[C@H]1CCCN[C@H]1c1ccccc1", "inactive"),
    ("O=C(O)c1[nH]n(-c2ccc(S(=O)(=O)O)cc2)c(=O)c1N=Nc1ccc(S(=O)(=O)O)cc1", "inactive"),
    ("Cc1cc(Cc2ccc(N)c(C)c2)ccc1N", "inactive"),
    ("N[C@@H](Cc1c[nH]c2ccccc12)C(=O)O", "inactive"),
    ("CS(=O)(=O)c1ccc([C@@H](C[C@H]2CCC(=O)C2)C(=O)Nc2cnccn2)cc1Cl", "inactive"),
    ("O=C1c2c(O)cccc2Cc2cccc(O)c21", "inactive"),
    ("CC(C)c1cccc(C(C)C)c1", "inactive"),
    ("O=Cc1ccccc1C=O", "inactive"),
    ("NCCOCCOCCN", "inactive"),
    ("c1ccc2occc2c1", "inactive"),
    ("CCCCCCCCCC[N+](C)(C)[O-]", "inactive"),
    ("O=C(N[C@@H](c1ccccc1)[C@@H]1CCCCN1)c1cccc(C(F)(F)F)c1Cl", "active"),
    ("CN(C)C(=O)NC1(c2ccccc2)CCN(CCC[C@]2(c3ccc(Cl)c(Cl)c3)CCCN(C(=O)c3ccccc3)C2)CC1", "inactive"),
    ("CCCCCCCCCCCCCCOS(=O)(=O)O", "inactive"),
    ("CC(C)c1cccc(C(C)C)c1NC(=O)NS(=O)(=O)c1cc(C(C)(C)O)co1", "inactive"),
]

----------
measurement.notes: BSK_SAg_Proliferation: Cell Proliferation Assessment in the BioMAP Diversity Plus: SAg Assay (AID 2283095);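 also: relative cell number as total protein by SRB absorbance in sub-confluent culture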
cond: primary human HUVEC with PBMC
Activity calls are given as the source filed them. How the source made its calls: active means hit-call score of the fitted dose curve at least 0.9, where 1 is the maximum; inactive means score below 0.9.
recorded.metric: AC50

# compound, recorded.metric, reported.measurement
measured = [
    ("CCCCC(CC)CO (stereo not drawn)", "AC50", "inactive"),
    ("CCOCCOCCO", "AC50", "inactive"),
    ("CC(=O)CC(c1ccccc1)c1c(O)c2ccccc2oc1=O (stereo not drawn)", "AC50", "inactive"),
    ("O=C(O)c1[nH]n(-c2ccc(S(=O)(=O)O)cc2)c(=O)c1N=Nc1ccc(S(=O)(=O)O)cc1", "AC50", "inactive"),
    ("CC(=O)[C@@]1(O)CC[C@H]2[C@@H]3CCC4=CC(=O)CC[C@]4(C)[C@H]3CC[C@@]21C", "AC50", "inactive"),
    ("O=C(N[C@@H](c1ccccc1)[C@@H]1CCCCN1)c1cccc(C(F)(F)F)c1Cl", "AC50", "14.4 µM (active)"),
    ("Oc1ccccc1O", "AC50", "24.5 µM (active)"),
    ("CCCCCCCCCC[N+](C)(C)[O-]", "AC50", "inactive"),
    ("Cc1c(C)c2c(c(C)c1O)CCC(C)(COc1ccc(CC3SC(=O)NC3=O)cc1)O2 (stereo not drawn)", "AC50", "14.1 µM (active)"),
    ("NC=O", "AC50", "inactive"),
    ("Nc1nc(=S)c2[nH]cnc2[nH]1", "AC50", "13.5 µM (active)"),
    ("Cc1occc(=O)c1O", "AC50", "inactive"),
    ("NC(=Nc1ccccc1)Nc1ccccc1", "AC50", "inactive"),
]

----------
Read-out: CYP2C9 (gene 1559)
measurement.notes: LTEA_HepaRG_CYP2C9: Life Technologies and Expression Analysis (LTEA) Assay for CYP2C9 using HepaRG (AID 2283484)
cond: mRNA level, 48 h; actives raise or lower the signal
Active and inactive are the calls of the source. The calls were made as follows: active = hit-call score of the fitted dose curve at least 0.9, where 1 is the maximum; inactive = score below 0.9.
Possible outcomes: active, inactive

# molecule, class
rows = [
    ("NC=O", "inactive"),
    ("O=C(Oc1ccccc1)c1cccc(C(=O)Oc2ccccc2)c1", "inactive"),
    ("COC(=O)[C@H]1[C@H]2C[C@@H]3c4[nH]c5cc(OC)ccc5c4CCN3C[C@H]2C[C@@H](OC(=O)c2cc(OC)c(OC)c(OC)c2)[C@@H]1OC", "active"),
    ("CCCCCCC(C=O)=Cc1ccccc1", "inactive"),
    ("C#CC(O)C(CC)CCCC (stereo not drawn)", "inactive"),
    ("CCCCc1nc2cccnc2n1Cc1ccc(-c2ccccc2-c2nnn[nH]2)cc1", "inactive"),
    ("CCCCCCCCCCCCCCOS(=O)(=O)O", "active"),
    ("O=Cc1ccccc1C=O", "inactive"),
    ("CC(C)c1cccc(C(C)C)c1NC(=O)NS(=O)(=O)c1cc(C(C)(C)O)co1", "inactive"),
    ("CC(C)NCC(O)c1ccc(O)c(O)c1 (stereo not drawn)", "active"),
    ("Oc1ccccc1O", "inactive"),
    ("Oc1ccc(O)cc1", "inactive"),
    ("OCC(CO)n1cnc(-c2ccc(F)cc2)c1-c1ccnc(Oc2ccccc2)n1", "inactive"),
]

----------
measurement.notes: APR_HepG2_NuclearSize_24hr: Apredica 24-hour HepG2 Assay for Nuclear Size (AID 2282907)
cond: high-content imaging, actives raise or lower the signal
The source made the active and inactive calls. Rule for the calls: active = hit-call score of the fitted dose curve at least 0.9, where 1 is the maximum; inactive = score below 0.9.
Possible outcomes: active, inactive

# molecule, class
measured = [
    ("CCCCc1nc2cccnc2n1Cc1ccc(-c2ccccc2-c2nnn[nH]2)cc1", "active"),
    ("CC(C)(C)c1ccccc1", "inactive"),
    ("CCOCCOCCO", "inactive"),
    ("CN(C)C(=O)NC1(c2ccccc2)CCN(CC[C@@]2(c3ccc(F)c(F)c3)CN(C(=O)c3ccccc3)CCO2)CC1", "inactive"),
    ("CCC(C)N(C)C(=O)c1cc2ccccc2c(-c2ccccc2Cl)n1 (stereo unspecified)", "inactive"),
    ("CCCC(=O)O", "inactive"),
    ("O=Cc1ccccc1C=O", "inactive"),
    ("O=NO", "inactive"),
    ("CCN(CC)CCOc1ccc(C(=C(Cl)c2ccccc2)c2ccccc2)cc1", "active"),
    ("Nc1nc(Cl)nc2c1ncn2[C@H]1C[C@H](O)[C@@H](CO)O1", "active"),
    ("O=[Si]=O", "inactive"),
    ("O=C(O)c1[nH]n(-c2ccc(S(=O)(=O)O)cc2)c(=O)c1N=Nc1ccc(S(=O)(=O)O)cc1", "inactive"),
    ("O=C1NC(=O)C(c2ccccc2)(c2ccccc2)N1", "inactive"),
    ("Cc1c(C)c2c(c(C)c1O)CCC(C)(COc1ccc(CC3SC(=O)NC3=O)cc1)O2 (stereo unspecified)", "inactive"),
    ("CC(=O)OCC(COC(C)=O)OC(C)=O", "inactive"),
    ("CCCCCCC(CCCCCCCCCCC(=O)OCC(COC(C)=O)OC(C)=O)OC(C)=O (stereo unspecified)", "inactive"),
    ("Cc1occc(=O)c1O", "inactive"),
    ("C=CCCCCCCCCCCCC", "inactive"),
    ("CCCC[C@H]1CN(CC2CCOCC2)C(=O)OC12CCN(C1(C)CCN(C(=O)c3c(C)ncnc3C)CC1)CC2", "inactive"),
    ("COc1ccc(OC(F)(F)F)cc1CN[C@H]1CCCN[C@H]1c1ccccc1", "active"),
    ("CC1(C)C(=O)NC(=O)N1CO", "inactive"),
    ("C/C=C/c1ccc(OC)cc1", "inactive"),
    ("OCC(CO)n1cnc(-c2ccc(F)cc2)c1-c1ccnc(Oc2ccccc2)n1", "inactive"),
    ("NCCOCCOCCN", "inactive"),
    ("Oc1ccccc1O", "inactive"),
    ("CN(C)CCCN(C)CCCN(C)C", "inactive"),
]
